I'd be grateful if you could share measured growth inhibition by drug plus 177Lu-lilotomab satetraxetan for these entries.
# Test system: U-2932
# procedureText: growth inhibition by drug plus 177Lu-lilotomab satetraxetan (1 - RLU/untreated control) (fraction); higher = stronger inhibition
# measurementContext: 10 nM; time (day): 4; 177Lu-lilotomab satetraxetan 1 ug/ml
Structures can show the parent of a compound that is named as a salt.
Field format: numeric only.

Recorded growth inhibition by drug plus 177Lu-lilotomab satetraxetan for CC/C(=C(\c1ccccc1)c1ccc(OCCN(C)C)cc1)c1ccccc1 [Tamoxifen Citrate (Nolvadex)] , please?
0.126

Do the same for `COc1cc2c(NC3CCN(C)CC3)nc(N3CCCN(C)CC3)nc2cc1OCCCN(C)C` please
-0.0119

Do the same for `O=C(NC1CCNCC1)c1n[nH]cc1NC(=O)c1c(Cl)cccc1Cl` please
0.0657

Do the same for CCN(CC)CCNC(=O)c1c(C)[nH]c(/C=C2\C(=O)Nc3ccc(F)cc32)c1C [Sunitinib Malate (Sutent)] please
-0.0528

Do the same for Nc1nccc(-c2ccc3noc(-c4ccc(Cl)cc4)c3c2)n1 [PIM-1 Inhibitor 2] please
0.102

Do the same for `Cc1nc(Nc2ncc(C(=O)Nc3c(C)cccc3Cl)s2)cc(N2CCN(CCO)CC2)n1` please
-0.0412

Do the same for `COc1ncc(-c2ccc3nccc(-c4ccnnc4)c3c2)cc1NS(=O)(=O)c1ccc(F)cc1F` please
0.769

Do the same for C[C@@H]1C[C@H]2[C@@H]3CCC4=CC(=O)C=C[C@]4(C)[C@@]3(F)[C@@H](O)C[C@]2(C)[C@@]1(O)C(=O)CO [Dexamethasone] please
0.301

Do the same for CC1(CN2CCC(n3c(=O)[nH]c4ccccc43)CC2)OCc2ccccc2-n2cccc21 (configuration not stated) please
0.0346

Do the same for CN1CCN(c2ccc3nc(-c4c(N)c5c(F)cccc5[nH]c4=O)[nH]c3c2)CC1 [Dovitinib (TKI-258)] please
0.0792

Do the same for Nc1ncn([C@@H]2O[C@H](CO)[C@@H](O)[C@H]2O)c(=O)n1 [Azacitidine (Vidaza)] please
-0.0484

Do the same for `N#Cc1c(O)c2c(-c3ccc(-c4ccccc4O)cc3)csc2[nH]c1=O` please
0.0777

Do the same for `CCc1cncnc1N1CCN(Cc2nc3ccc(C(F)(F)F)cc3[nH]2)CC1` please
0.0254

Do the same for `CN1CCN(c2cccc(Nc3nc4c(-c5ccc(S(C)(=O)=O)cc5)cccn4n3)c2)CC1` please
0.0656

Do the same for CNNCc1ccc(C(=O)NC(C)C)cc1 [Procarbazine hydrochloride (Matulane)] please
0.103

Do the same for `C=CCn1c(=O)c2cnc(Nc3ccc(N4CCN(C)CC4)cc3)nc2n1-c1cccc(C(C)(C)O)n1` please
0.0521

Do the same for CS(=O)(=O)c1ccc(C(=O)Nc2ccc(Cl)c(-c3ccccn3)c2)c(Cl)c1 [Vismodegib (GDC-0449)] please
0.116

###

# System: U-2932
# procedureText: growth inhibition by drug plus 177Lu-lilotomab satetraxetan (1 - RLU/untreated control) (fraction); higher = stronger inhibition
# measurementContext: 10 nM; time (day): 5; 177Lu-lilotomab satetraxetan 1 ug/ml
measureName: growth inhibition by drug plus 177Lu-lilotomab satetraxetan
Field format: numeric only.

Provide value of growth inhibition by drug plus 177Lu-lilotomab satetraxetan for this record tested with U-2932: `Nc1ncn([C@@H]2O[C@H](CO)[C@@H](O)[C@H]2O)c(=O)n1`
0.0134

Do the same for `Nc1nc(F)nc2c1ncn2[C@@H]1O[C@H](CO)[C@@H](O)[C@@H]1O` please
0.126

Do the same for `CC(C)n1nc(-c2ccc3oc(N)nc3c2)c2c(N)ncnc21` please
0.31

Do the same for COc1c(C)c2c(c(O)c1C/C=C(\C)CCC(=O)O)C(=O)OC2 [Mycophenolic (Mycophenolate)] please
0.191

Do the same for N#CC(c1ccnc(NCCc2cccnc2)n1)c1nc2ccccc2s1 (stereo not given) please
-0.0367
